Data provenance is patent US12065421B2.

- system: NanoBiT® HiBiT non-luminescent peptide and LgBiT non-luminescent polypeptide (HiBiT/LgBiT bioluminescent complex) (Oplophorus gracilirostris, UniProt Q9GV45, A31E/A60N/A81I/C191F/D135N/E192K/F58L/F95D/G184S/G42A/G62A/G78A/G94A/G98A/H120P/I103V/I117V/I134L/K70R/L176M/L195S/L54V/L73R/L99Q/M102E/N171T/N193K/P142E/Q151K/Q38E/Q45L/T186S/V71I/Y165I)
- Construct: fused on or other part: N-terminal Met-Val on LgBiT in place of the signal peptide (residues 1-27); The chain is split between residues 184 and 185 into LgBiT and the 11-residue HiBiT peptide (residues 185-195); C-terminal A196 is absent
- Sequence (Q9GV45 other isoform, or with tags, fused parts or gaps with the stated changes): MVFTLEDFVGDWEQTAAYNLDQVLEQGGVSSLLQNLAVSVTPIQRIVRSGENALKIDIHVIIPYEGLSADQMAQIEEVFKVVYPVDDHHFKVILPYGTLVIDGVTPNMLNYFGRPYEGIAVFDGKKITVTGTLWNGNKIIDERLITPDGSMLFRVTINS
- protocol-description: biochemical
endpoint-label: pIC50
The quantity pIC50 is defined as the negative base-10 logarithm of the molar concentration.

CCCCNc1cccc(S(=O)(=O)Nc2ccccc2C(=O)Nc2ccc(C)cc2)c1 [JRW-1269]    5.96
Cc1ccc(S(=O)(=O)Nc2ccc(C(F)(F)F)cc2C(=O)Nc2cc3ccccc3s2)cc1 [JRW-1388]    9.24
COc1ccc(C(=O)Nc2ccc(C)cc2)c(NS(=O)(=O)c2ccc(C)cc2)c1 [JRW-1202]    6.74
Cc1ccc(NC(=O)c2ccccc2NS(=O)(=O)c2cccc(Br)c2)cc1 [JRW-1267]    7.44

Consider the compound CCCCC#Cc1cccc(S(=O)(=O)Nc2ccccc2C(=O)Nc2ccc(C)cc2)c1 [JRW-1270] and give its measured pIC50.
5.92

* * *

Reported IC50 values for a set of compounds
- system: NanoBiT® HiBiT non-luminescent peptide and LgBiT non-luminescent polypeptide (HiBiT/LgBiT bioluminescent complex) (Oplophorus gracilirostris, UniProt Q9GV45, A31E/A60N/A81I/C191F/D135N/E192K/F58L/F95D/G184S/G42A/G62A/G78A/G94A/G98A/H120P/I103V/I117V/I134L/K70R/L176M/L195S/L54V/L73R/L99Q/M102E/N171T/N193K/P142E/Q151K/Q38E/Q45L/T186S/V71I/Y165I)
- Construct: fused on or other part: N-terminal Met-Val on LgBiT in place of the signal peptide (residues 1-27); The chain is split between residues 184 and 185 into LgBiT and the 11-residue HiBiT peptide (residues 185-195); C-terminal A196 is absent
- protocol-description: biochemical
Give your result in nM as a bare value.

Guide cases for IC50, answers given:
CCCCc1ccc(NC(=O)c2ccccc2NS(=O)(=O)c2ccc(C)cc2)cc1    26
N#Cc1c(NC(=O)c2ccccc2NS(=O)(=O)c2ccccc2)sc2c1CCC2    22
Cc1ccc(S(=O)(=O)Nc2ccccc2C(=O)Nc2ccc3ccccc3c2)cc1    14
Cc1ccc(S(=O)(=O)Nc2ccccc2C(=O)Nc2ccc(CCCCO)cc2)cc1    19000
COc1ccc(NS(=O)(=O)c2ccc(C)cc2)c(C(=O)Nc2ccc(C)cc2)c1    130
CCCc1ccccc1NC(=O)c1ccccc1NS(=O)(=O)c1ccc(C)cc1    190
Cc1ccc(S(=O)(=O)Nc2ccccc2C(=O)Nc2ccc(-c3ccccc3)cc2)cc1    110
CCCCCCc1ccc(NC(=O)c2ccccc2NS(=O)(=O)c2ccc(C)cc2)cc1    1100
COc1ccc(NC(=O)c2ccccc2NS(=O)(=O)c2ccc(C)cc2)cc1    43
Cc1ccc(S(=O)(=O)Nc2ccc(C)cc2C(=O)Nc2cc3ccccc3s2)cc1    29

Consider the compound CCN(c1ccccc1C(=O)Nc1ccc(OC)cc1)S(=O)(=O)c1ccc(C)cc1 and give its measured IC50.
1300

Next compound up: COC(=O)c1cccc(S(=O)(=O)Nc2ccccc2C(=O)Nc2ccc(C)cc2)c1
540
